Tested Target: the molecule itself
Test Details: SEC-MALS; Superdex 200 gel filtration in 50 mM Tris pH 8.0, 100 mM NaCl, 10 mM EDTA, 1 mM DTT; three-angle light scattering (mini-DAWN TRISTAR) and refractive index detector; self-association (trimer)
Quantity Measured: binding result

Protein	Value Observed
human TRAF7 CC (270–379 aa) I368S (domain or fragment, UniProt Q6Q0C0 270-379, looked up, source: E. coli BL21 (DE3), purified (nickel-NTA, Superdex 200 size-exclusion chromatography)) GNQDTYETHLETCRFEGLKEFLQQTDDRFHEMHVALAQKDQEIAFLRSMLGKLSEKIDQLEKSLELKFDVLDENQSKLSEDLMEFRRDASMLNDELSHSNARLNMGILGS	binds
human TRAF7 CC (270–379 aa) K346E (domain or fragment, UniProt Q6Q0C0 270-379, looked up, Variant found in patients with developmental disorders; source: E. coli BL21 (DE3), purified (nickel-NTA, Superdex 200 size-exclusion chromatography)) GNQDTYETHLETCRFEGLKEFLQQTDDRFHEMHVALAQKDQEIAFLRSMLGKLSEKIDQLEKSLELKFDVLDENQSELSEDLMEFRRDASMLNDELSHINARLNMGILGS	binds
human TRAF7 CC (270–379 aa) F337S (domain or fragment, UniProt Q6Q0C0 270-379, looked up, source: E. coli BL21 (DE3), purified (nickel-NTA, Superdex 200 size-exclusion chromatography)) GNQDTYETHLETCRFEGLKEFLQQTDDRFHEMHVALAQKDQEIAFLRSMLGKLSEKIDQLEKSLELKSDVLDENQSKLSEDLMEFRRDASMLNDELSHINARLNMGILGS	binds
